Quick reference for inhibition among some compounds
Molecular target: Amyloid-beta precursor protein (Homo sapiens) (UniProt P05067)
Sequence (P05067 whole entry): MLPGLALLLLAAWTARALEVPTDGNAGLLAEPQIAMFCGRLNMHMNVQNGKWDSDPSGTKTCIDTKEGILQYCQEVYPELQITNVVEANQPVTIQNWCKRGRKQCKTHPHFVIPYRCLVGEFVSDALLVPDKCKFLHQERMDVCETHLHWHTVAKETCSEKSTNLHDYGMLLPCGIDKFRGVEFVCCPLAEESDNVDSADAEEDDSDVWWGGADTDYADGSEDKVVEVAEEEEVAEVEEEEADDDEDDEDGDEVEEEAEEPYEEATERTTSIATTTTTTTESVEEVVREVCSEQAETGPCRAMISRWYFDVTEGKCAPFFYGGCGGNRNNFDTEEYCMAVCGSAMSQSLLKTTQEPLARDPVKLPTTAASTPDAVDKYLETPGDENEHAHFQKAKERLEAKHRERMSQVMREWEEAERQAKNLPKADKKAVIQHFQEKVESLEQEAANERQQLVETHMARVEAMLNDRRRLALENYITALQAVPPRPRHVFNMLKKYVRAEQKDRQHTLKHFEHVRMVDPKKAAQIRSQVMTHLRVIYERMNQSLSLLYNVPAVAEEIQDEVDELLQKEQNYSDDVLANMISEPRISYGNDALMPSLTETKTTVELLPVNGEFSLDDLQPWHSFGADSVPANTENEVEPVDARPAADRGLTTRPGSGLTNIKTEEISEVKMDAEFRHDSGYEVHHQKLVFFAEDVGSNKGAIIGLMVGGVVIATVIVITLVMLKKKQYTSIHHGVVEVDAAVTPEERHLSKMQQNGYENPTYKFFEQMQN
Assay: Inhibition of aggregation of amyloid beta (1 to 42) (unknown origin) expressed in Escherichia coli BL21 (DE3) at 10 uM after 24 hrs by thioflavin S fluorescence assay
# value in %; strip the unit string

The following compounds have reported results that may help.
CC1=CC2Cc3nc4cc(Cl)ccc4c(N)c3C(C1)C2 (stereo not given)    8.9
COc1cc(CCC(=O)/C=C/c2ccc(CNc3c4c(nc5cc(Cl)ccc35)CC3CC(C)=CC4C3)cc2)cc(CN(C)C)c1O (stereo not given)    53.9
CCCCC/C=C/C(=O)CCc1ccc(O)c(OC)c1    10.5
COc1cc(CCC(=O)/C=C/CCCNc2c3c(nc4cc(Cl)ccc24)CC2CC(C)=CC3C2)ccc1O (stereo not given)    39.3

Could you now consider this next compound?
What inhibition value was documented for this compound, COc1cc(CCC(=O)/C=C/c2ccc(CNc3c4c(nc5cc(Cl)ccc35)CC3CC(C)=CC4C3)cc2)ccc1O (stereo not given) ?
70.6

====

Molecular target: UniProt:P06276
Sequence (P06276 whole entry): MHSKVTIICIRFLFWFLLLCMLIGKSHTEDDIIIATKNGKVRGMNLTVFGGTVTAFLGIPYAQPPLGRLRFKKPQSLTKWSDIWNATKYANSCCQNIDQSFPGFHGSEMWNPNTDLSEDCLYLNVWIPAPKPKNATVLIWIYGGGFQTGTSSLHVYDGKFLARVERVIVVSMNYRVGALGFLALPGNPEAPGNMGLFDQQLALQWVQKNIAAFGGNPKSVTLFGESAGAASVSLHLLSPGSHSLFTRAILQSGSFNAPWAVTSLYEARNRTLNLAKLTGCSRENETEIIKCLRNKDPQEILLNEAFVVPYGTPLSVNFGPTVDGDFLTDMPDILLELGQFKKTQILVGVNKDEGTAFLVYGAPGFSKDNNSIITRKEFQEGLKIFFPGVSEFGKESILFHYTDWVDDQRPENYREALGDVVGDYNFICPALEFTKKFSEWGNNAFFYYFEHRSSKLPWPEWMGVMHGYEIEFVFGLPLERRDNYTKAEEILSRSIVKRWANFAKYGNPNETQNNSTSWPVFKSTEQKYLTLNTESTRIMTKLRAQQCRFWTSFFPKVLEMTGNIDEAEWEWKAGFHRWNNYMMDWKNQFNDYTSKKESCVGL
Assay: Inhibition of human serum BChE using butyrylthiocholine iodide preincubated for 20 mins before substrate addition by Ellman method
Quick reference for IC50 among some compounds
A complete answer gives the number followed by the unit.

The following compounds have reported results that may help.
COc1cc(CCC(=O)/C=C/c2ccc(CNc3c4c(nc5cc(Cl)ccc35)CC3CC(C)=CC4C3)cc2)ccc1O (stereo not drawn)    742 nM
COc1cc(CCC(=O)/C=C/c2ccc(CNc3c4c(nc5cc(Cl)ccc35)CC3CC(C)=CC4C3)cc2)cc(CN(C)C)c1O (stereo not drawn)    181 nM

Could you now consider this next compound?
Provide the documented IC50 with UniProt:P06276 as the system for COc1cc(CCC(=O)/C=C/CCCNc2c3c(nc4cc(Cl)ccc24)CC2CC(C)=CC3C2)ccc1O (stereo not drawn)
982 nM

====

Test: in vitro
Conditions: PAMPA
Description: Permeability of the compound by PAMPA-BBB assay
reportedProperty: Papp (×10⁻⁶ cm/s)
# value in ×10⁻⁶ cm/s; strip the unit string

The following compounds have reported results that may help.
CCCCC/C=C/C(=O)CCc1ccc(O)c(OC)c1    14.7
COc1cc(CCC(=O)/C=C/c2ccc(CNc3c4c(nc5cc(Cl)ccc35)CC3CC(C)=CC4C3)cc2)cc(CN(C)C)c1O (centres undefined)    8.4
COc1cc(CCC(=O)/C=C/CCCNc2c3c(nc4cc(Cl)ccc24)CC2CC(C)=CC3C2)ccc1O (centres undefined)    11.7

Could you now consider this next compound?
What Papp value was documented for this compound, COc1cc(CCC(=O)/C=C/c2ccc(CNc3c4c(nc5cc(Cl)ccc35)CC3CC(C)=CC4C3)cc2)ccc1O (centres undefined) ?
6.5

====

Quick reference for Activity among some compounds
Assay: Antioxidant activity assessed as DPPH free radical scavenging activity measured as trolox equivalent after 30 mins by spectrophotometry
Type: physicochemical
Design: unit not given beside the values
Conditions: 0.5 h
Kindly provide the number alone.

The following compounds have reported results that may help.
CC1=CC2Cc3nc4cc(Cl)ccc4c(N)c3C(C1)C2 (stereo unspecified) [HUPRINE Y]    1
O=C(O)c1cc(O)c(O)c(O)c1 [GALLIC ACID]    10.3
CCCCC/C=C/C(=O)CCc1ccc(O)c(OC)c1 [SHOGAOL]    12.2
COc1cc(CCC(=O)/C=C/c2ccc(CNc3c4c(nc5cc(Cl)ccc35)CC3CC(C)=CC4C3)cc2)ccc1O (stereo unspecified)    8.8

What Activity value was documented for this compound, COc1cc(CCC(=O)/C=C/CCCNc2c3c(nc4cc(Cl)ccc24)CC2CC(C)=CC3C2)ccc1O (stereo unspecified) ?
6.6

What Activity value was documented for this compound, COc1cc(CCC(=O)/C=C/c2ccc(CNc3c4c(nc5cc(Cl)ccc35)CC3CC(C)=CC4C3)cc2)cc(CN(C)C)c1O (stereo unspecified) ?
2.8
